From: PubChem BioAssay AID1845207

# Tested on: NCI-H1876 tumor spheroid viability
# assay_protocol: Anticancer human tumor NCI-H1876 cell line growth inhibition;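 further: spheroids exposed to compounds for seven days before the viability read; percent of DMSO vehicle control viability so 100% = vehicle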
# protocol_conditions: second compound 30 pM; first compound 10 µM; hits give low values; spheroids with HUVEC and MSC
Listed below: viability, T/C values for each entry.
Number in %, nothing else.

[[record]]
molecule = "COc1ccc([C@@H](O)c2cc(-c3ncnc4cc(N5CCOCC5)ccc34)c(F)cc2Cl)nn1 + COc1cc2c(cc1O)CCNC21CSC2c3c(OC(C)=O)c(C)c4c(c3C(COC1=O)N1C(O)C3Cc5cc(C)c(OC)c(O)c5C(C21)N3C)OCO4"
reading_unit = "%"
result_number = 8.98


q: Which value of viability, T/C has been reported for CC1COCCN1c1cc(-c2ccnn2C)c2ccnc(-c3ccn[nH]3)c2n1 (stereo unspecified) + COc1cc2c(cc1O)CCNC21CSC2c3c(OC(C)=O)c(C)c4c(c3C(COC1=O)N1C(O)C3Cc5cc(C)c(OC)c(O)c5C(C21)N3C)OCO4 in the records?
a: 2.83

q: Item under review: Cc1cc(C)c(CNC(=O)c2cc(-c3ccc(CN4CCOCC4)cc3)cc3c2cnn3C2CCCC2)c(=O)[nH]1 + COc1cc2c(cc1O)CCNC21CSC2c3c(OC(C)=O)c(C)c4c(c3C(COC1=O)N1C(O)C3Cc5cc(C)c(OC)c(O)c5C(C21)N3C)OCO4 . Reported viability, T/C?
a: 85.3

q: Any idea what viability, T/C was measured for [2H]c1nc(C)nc([2H])c1-c1cc(NC[C@@H](C)c2cccc3c(C(=O)NC)ccnc23)ncn1 + COc1cc2c(cc1O)CCNC21CSC2c3c(OC(C)=O)c(C)c4c(c3C(COC1=O)N1C(O)C3Cc5cc(C)c(OC)c(O)c5C(C21)N3C)OCO4 ?
a: 98

q: # get_value(readout='viability, T/C', item= CC(C)n1c(=O)n(C)c2cnc3cc(F)c(-c4ccc(OCCCN5CCCCC5)nc4)cc3c21 + COc1cc2c(cc1O)CCNC21CSC2c3c(OC(C)=O)c(C)c4c(c3C(COC1=O)N1C(O)C3Cc5cc(C)c(OC)c(O)c5C(C21)N3C)OCO4 )
a: 86.7

q: Fill blank: measured viability, T/C of the molecule COc1cc(C)[nH]c(=O)c1CN1CCc2c(Cl)cc(C(OC)C3COC3)c(Cl)c2C1=O (stereo unspecified) + COc1cc2c(cc1O)CCNC21CSC2c3c(OC(C)=O)c(C)c4c(c3C(COC1=O)N1C(O)C3Cc5cc(C)c(OC)c(O)c5C(C21)N3C)OCO4 is ____.
a: 90.5
